- system-name: Jack bean urease (Canavalia ensiformis)
- Sequence (P07374 whole entry, looked up): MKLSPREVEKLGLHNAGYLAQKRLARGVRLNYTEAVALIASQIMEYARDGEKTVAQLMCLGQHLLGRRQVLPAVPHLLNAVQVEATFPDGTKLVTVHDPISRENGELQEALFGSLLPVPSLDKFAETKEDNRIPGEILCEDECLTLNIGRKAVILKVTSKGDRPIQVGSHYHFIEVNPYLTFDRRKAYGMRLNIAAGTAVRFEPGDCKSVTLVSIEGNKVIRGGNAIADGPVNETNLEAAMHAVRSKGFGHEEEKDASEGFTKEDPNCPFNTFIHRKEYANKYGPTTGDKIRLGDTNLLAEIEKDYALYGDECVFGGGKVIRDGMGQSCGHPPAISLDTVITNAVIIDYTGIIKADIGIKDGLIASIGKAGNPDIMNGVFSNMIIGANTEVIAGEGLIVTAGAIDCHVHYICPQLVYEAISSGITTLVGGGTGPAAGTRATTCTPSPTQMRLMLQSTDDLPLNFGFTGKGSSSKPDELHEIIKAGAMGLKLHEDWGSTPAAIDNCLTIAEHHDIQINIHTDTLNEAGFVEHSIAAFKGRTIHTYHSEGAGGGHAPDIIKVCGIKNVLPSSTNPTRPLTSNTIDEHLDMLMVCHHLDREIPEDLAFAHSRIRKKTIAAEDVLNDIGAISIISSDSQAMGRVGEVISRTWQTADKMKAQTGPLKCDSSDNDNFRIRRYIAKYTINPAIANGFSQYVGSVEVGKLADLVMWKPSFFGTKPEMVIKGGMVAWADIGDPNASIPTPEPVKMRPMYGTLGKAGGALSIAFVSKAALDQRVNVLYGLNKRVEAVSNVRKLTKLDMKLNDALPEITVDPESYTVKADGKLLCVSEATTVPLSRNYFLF
pIC50: −log10 of the molar value.

[
  {
    "compound": "NC(=O)NO [hydroxyurea]",
    "pIC50": 4.00
  }
]
